Assay: qHTS assay to identify small molecule agonists of the estrogen related receptor (ERR) signaling pathway (AID 1224820); note: % is set by controls: 0 for no effect and ±100 for the full control effect
Details: ERR reporter cell line, luciferase agonist mode; series mostly up to 46.1 µM
Results filed as inconclusive are left out. Activity calls are given as the source filed them. Calls come from the whole dose curve; as a rule, active = well fitted activation curve with a large enough effect in the repeat runs; inconclusive = weak or mixed curves; inactive = no such curve, though single readings can be large or run the other way.
Measured Property: outcome

1. COc1ccccc1N1CCN(CCCNc2cc(=O)n(C)c(=O)n2C)CC1; inactive
2. CN1CCC[C@@H]1Cc1c[nH]c2ccc(CCS(=O)(=O)c3ccccc3)cc12; inactive
3. CN1CCN(C2=Nc3ccccc3Oc3ccc(Cl)cc32)CC1; inactive
4. CNCCC(Oc1ccccc1OC)c1ccccc1 (centres undefined); inactive
5. CC1=C(CC(=O)O)c2cc(F)ccc2/C1=C\c1ccc(S(C)(=O)=O)cc1; inactive
6. C[C@]12CCC(=O)C=C1CC[C@@H]1[C@@H]2CC[C@@]2(C)[C@H]1CC[C@]2(O)C(=O)CO; inactive
7. O=C(O)CN(CCN(CC(=O)O)CC(=O)O)CCN(CC(=O)O)CC(=O)O; inactive
8. NC/C=C/C(=O)O; inactive
9. O=C1N(c2ccccc2)c2ccccc2C1(Cc1ccncc1)Cc1ccncc1; inactive

----------
Assay: qHTS assay to identify small molecule agonists of the AP-1 signaling pathway (AID 1159526)
Conditions: ME-180 (cervical carcinoma) AP-1-bla reporter, beta-lactamase FRET ratio, 5 h; series mostly up to 76.8 µM
Records with an inconclusive call do not appear. Calls of active or inactive are those of the source. Calls come from the whole dose curve.
Outcome codes: true (active), false (inactive)

1. O=Cc1ccc(F)c(Br)c1; false
2. CCOC(=O)C1CC(=O)C(=C(O)C2CC2)C(=O)C1 (centres undefined); false
3. COc1cc(C)ccc1C(C)C; false
4. CCCCC1CCC(=O)O1 (centres undefined); false
5. CCCCC(CC)COC(=O)COc1cc(Cl)c(Cl)cc1Cl (centres undefined); false
6. NCCCN1CCN(CCCN)CC1; false
7. CC(C)NCC(O)COc1ccc(CCOCC2CC2)cc1 (centres undefined); false
8. CCCNC(C)(C)COC(=O)c1ccccc1; false
9. CN1[C@@H]2CC[C@H]1CC(OC(=O)c1c[nH]c3ccccc13)C2 (some centres undefined); true
10. CCC1(C)NC(=O)NC1=O (centres undefined); false
11. CCCCNCCCC; false
12. Cc1ccc([N+](=O)[O-])cc1Cl; false
13. CC(C)(C)c1cccc(O)c1; false
14. O=C1N(c2ccccc2)c2ccccc2C1(Cc1ccncc1)Cc1ccncc1; false

----------
Experiment: qHTS assay to test for compound auto fluorescence at 590 nm (red) in HEK293 cell free culture (AID 720683); note: % is set by controls: 0 for no effect and ±100 for the full control effect
Conditions: cell-free medium autofluorescence, Ex540/Em590 red; series mostly up to 91.3 µM
Active and inactive are the calls of the source. Calls follow the shape of the dose curve; as a rule, active = well fitted curve in the direction sought with a large enough effect in the repeat runs; inconclusive = weak or mixed curves; inactive = flat fitted curve, though single readings scatter.
Measured Property: fluorescence, % of fluorescent control

1) CN1CCC[C@@H]1Cc1c[nH]c2ccc(CCS(=O)(=O)c3ccccc3)cc12; inactive
2) CC1=C2[C@H](/C=C(\C)C(=O)O)CC[C@@H](C)[C@H]2CC1; inactive
3) CCCCNC(=S)NCCCC; inactive
4) Cc1ccsc1C(=CCCN1CCC[C@@H](C(=O)O)C1)c1sccc1C; inactive
5) COc1nc(C)nc(NC(=O)NS(=O)(=O)c2ccccc2OCCCl)n1; inactive
6) ICCc1ccccc1; inactive
7) CC(C)(C)c1ccc(OC(=O)c2ccccc2O)cc1; inactive
8) O=C(CC(=O)C(F)(F)F)c1ccccc1; inactive
9) CC/C=C\CCOC(=O)CCCCC; inactive
10) CO[C@@]1(NC(=O)CSCC#N)C(=O)N2C(C(=O)O)=C(CSc3nnnn3C)CS[C@@H]21; inactive
11) COC(=O)c1ccc2cc(C(=O)OC)ccc2c1; 0.0914% [at 18.6 µM] (inactive)
12) OCCN1CCN(CCO)CC1; inactive
13) CCCNC(C)C(=O)Nc1c(C)csc1C(=O)OC (stereo not drawn); 0.0164% [at 18.6 µM] (inactive)
